target: KAT-6A (Homo sapiens (Human), UniProt Q92794); assay: KAT-6A biochemical inhibition assay (SAMDI mass spectrometry)
Sequence (Q92794 other isoform, or with tags, fused parts or gaps): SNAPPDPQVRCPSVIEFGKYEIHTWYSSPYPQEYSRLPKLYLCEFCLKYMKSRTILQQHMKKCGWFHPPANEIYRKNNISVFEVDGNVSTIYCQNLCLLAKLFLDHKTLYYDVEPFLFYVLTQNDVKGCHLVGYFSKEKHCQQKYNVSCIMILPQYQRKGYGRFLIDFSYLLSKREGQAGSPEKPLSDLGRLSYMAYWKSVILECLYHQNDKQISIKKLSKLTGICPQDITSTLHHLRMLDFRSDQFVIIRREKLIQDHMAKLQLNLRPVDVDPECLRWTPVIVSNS
pIC50: −log10 of the molar value.
reported.endpoint: pIC50

Consider the worked cases shown below.
CC(=O)N[C@H]1CC[C@@H](CS(=O)(=O)NNC(=O)c2cc(-c3cn(C)cn3)cc(Cl)c2F)CC1 ... > 5.00
CO[C@H]1CC[C@H](CS(=O)(=O)NNC(=O)c2cc(-c3cn(C)cn3)cc(Cl)c2F)CC1 ... > 5.00
Cn1cnc(-c2cc(Cl)c(F)c(C(=O)NNS(=O)(=O)CC3CCCC(NC(N)=O)C3)c2)c1 (stereo not drawn) ... > 5.00
O=C(NNS(=O)(=O)CC1CCOCC1)c1cc(-n2ccnn2)cc(Cl)c1F ... 4.30 to 5.00
Cn1ccc(-c2cc(Cl)c(F)c(C(=O)NNS(=O)(=O)CC3CCOCC3)c2)n1 ... > 5.00

Look up pIC50: CCN1CC(CS(=O)(=O)NNC(=O)c2cc(-c3cn(C)cn3)cc(Cl)c2F)CCC1=O (stereo not drawn)
4.30 to 5.00

* * *

target: KAT-7 (Homo sapiens (Human), UniProt O95251); assay: KAT-7 biochemical inhibition assay (SAMDI mass spectrometry)
Sequence (O95251 other isoform, or with tags, fused parts or gaps): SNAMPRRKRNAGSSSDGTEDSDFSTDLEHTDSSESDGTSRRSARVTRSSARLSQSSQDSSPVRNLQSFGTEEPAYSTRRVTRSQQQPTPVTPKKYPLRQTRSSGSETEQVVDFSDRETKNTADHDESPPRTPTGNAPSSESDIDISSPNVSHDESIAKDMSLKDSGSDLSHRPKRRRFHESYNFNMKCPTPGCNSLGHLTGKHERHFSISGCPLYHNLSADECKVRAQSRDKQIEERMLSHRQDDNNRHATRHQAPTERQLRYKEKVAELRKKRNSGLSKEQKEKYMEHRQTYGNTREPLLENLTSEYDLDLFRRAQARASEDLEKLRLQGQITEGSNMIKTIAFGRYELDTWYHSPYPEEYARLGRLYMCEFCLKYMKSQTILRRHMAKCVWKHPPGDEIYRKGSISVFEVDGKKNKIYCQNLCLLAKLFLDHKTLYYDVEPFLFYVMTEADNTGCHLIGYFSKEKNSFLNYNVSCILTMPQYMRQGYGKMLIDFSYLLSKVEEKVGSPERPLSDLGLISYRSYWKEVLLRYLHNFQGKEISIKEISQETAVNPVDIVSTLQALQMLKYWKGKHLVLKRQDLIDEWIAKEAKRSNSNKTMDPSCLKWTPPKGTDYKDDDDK
reported.endpoint: IC50

Cn1cnc(-c2cc(Cl)c(F)c(C(=O)NNS(=O)(=O)C[C@H]3CC[C@H](NC(N)=O)CC3)c2)c1 [Compound I-194] ... < 10 µM
Cn1cnc(-c2cc(Cl)c(F)c(C(=O)NNS(=O)(=O)C[C@H]3CCC[C@H](O)C3)c2)c1 [Compound I-306] ... < 10 µM
Cn1cnc(-c2cc(Cl)c(Cl)c(C(=O)NNS(=O)(=O)CC3CCCCC3)c2)c1 [Compound I-144] ... < 10 µM
Cn1cnc(-c2cc(Cl)c(F)c(C(=O)NNS(=O)(=O)c3cn(C)nn3)c2)c1 [Compound I-69] ... < 10 µM
Cn1cnc(-c2cc(Cl)c(F)c(C(=O)NNS(=O)(=O)CC3CN(C(N)=O)C3)c2)c1 [Compound I-208] ... < 10 µM

Look up IC50: Cn1cnc(-c2cc(Cl)c(F)c(C(=O)NNS(=O)(=O)C[C@H]3CCOC3)c2)c1 [Compound I-371]
< 10 µM

Look up IC50: Cn1cnc(-c2cc(Cl)c(F)c(C(=O)NNS(=O)(=O)c3cn(C)cn3)c2)c1 [Compound I-237]
< 10 µM

Look up IC50: COCCn1cc(S(=O)(=O)NNC(=O)c2cc(-c3cn(C)cn3)cc(Cl)c2F)cn1 [Compound I-212]
< 10 µM

Look up IC50: CCOC1CCC(CS(=O)(=O)NNC(=O)c2cc(-c3cn(C)cn3)cc(Cl)c2F)CC1 (centres unmarked) [Compound I-347]
< 10 µM

Look up IC50: Cn1cnc(-c2cc(Cl)c(F)c(C(=O)NNS(=O)(=O)CC3CCCC(NC(=O)Cc4ccccc4)C3)c2)c1 (centres unmarked) [Compound I-231]
< 10 µM

* * *

target: KAT-6A (Homo sapiens (Human)); assay: KAT-6A biochemical inhibition assay (SAMDI mass spectrometry)
Listed here are compounds together with their documented IC50.

COc1ccc(CN(C)C(=O)N2CC(CS(=O)(=O)NNC(=O)c3cc(-c4cn(C)cn4)cc(Cl)c3F)C2)cc1 ... < 10 µM

Checklist item: IC50 tested on KAT-6A (Homo sapiens (Human)), entry `Cc1cnn(-c2cc(Cl)c(F)c(C(=O)NNS(=O)(=O)CC3CCOCC3)c2)c1` , value?
< 10 µM

Checklist item: IC50 tested on KAT-6A (Homo sapiens (Human)), entry `Cn1cnc(-c2cc(Cl)c(Cl)c(C(=O)NNS(=O)(=O)CC3CCCCC3)c2)c1` , value?
> 100 µM

Checklist item: IC50 tested on KAT-6A (Homo sapiens (Human)), entry CN(C(=O)C1CCC1)C1CCC(CS(=O)(=O)NNC(=O)c2cc(-c3cn(C)cn3)cc(Cl)c2F)CC1 (stereo not drawn) , value?
< 10 µM

Checklist item: IC50 tested on KAT-6A (Homo sapiens (Human)), entry CNC(=O)NC1CCC(CS(=O)(=O)NNC(=O)c2cc(-c3cn(C)cn3)cc(Cl)c2F)C1 (stereo not drawn) , value?
< 10 µM

Checklist item: IC50 tested on KAT-6A (Homo sapiens (Human)), entry `Cn1cnc(-c2cc(Cl)c(F)c(C(=O)NNS(=O)(=O)C[C@H]3CC[C@H](NC(=O)Cc4ccncc4)CC3)c2)c1` , value?
< 10 µM
